# PROCEDURE SUMMARY: chemical genetic growth profiling, strain panel (AID 1159580);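 note: tested at 20 µM; growth read once vehicle control cultures reached saturation at 30 °C; 1 = growth at the plate median or of vehicle wells; lower values mean less growth of the strain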
# EXPERIMENTAL CONTEXT: S. cerevisiae deletion strains, growth OD, locus YPR141C, strain kar3, hits give low values
Among all 5,500 compounds or so, about 2,000 (36%) were called active. Another 18% or so got no clear call; they are omitted. The list shows a part of the results.
TEST READOUT: normalized growth
Returns: the value as a bare number; no unit string appended.

[in] Looking for the measured normalized growth of CCCCCCC(C)OC(=O)COc1cc(Cl)c(Cl)cc1Cl (stereo not drawn) , can you help?
[out] 0.997

[in] Looking for the measured normalized growth of CCCCCCCCCCC[C@@H](C[C@H]1OC(=O)[C@H]1CCCCCC)OC(=O)[C@@H](CC(C)C)NC=O , can you help?
[out] 1.02

[in] Looking for the measured normalized growth of Nc1nc(=S)c2[nH]cnc2[nH]1 , can you help?
[out] 0.997

----------
# PROCEDURE SUMMARY: chemical genetic growth profiling, strain panel (AID 1159580);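 note: tested at 20 µM; growth read once vehicle control cultures reached saturation at 30 °C; 1 = growth at the plate median or of vehicle wells; lower values mean less growth of the strain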
# EXPERIMENTAL CONTEXT: S. cerevisiae deletion strains, growth OD, locus YCR088W, strain abp1, hits give low values
The campaign covered roughly 5,500 compounds. About 2,000 (36%) were called active. Roughly 18% stayed inconclusive and do not appear here. The list shows a part of the results.
Entries and their normalized growth
Returns: the value as a bare number; no unit string appended.

Previously resolved entries follow.
CC1CCc2cc(F)cc3c(=O)c(C(=O)O)cn1c23 (stereo unspecified)    0.999
NCCCS(=O)(=O)O    1.02
C[C@H]1COc2c(N3CCN(C)CC3)c(F)cc3c(=O)c(C(=O)O)cn1c23    1.02
CCCc1cc(C(N)=S)ccn1    0.966
COc1c(N2CCNC(C)C2)c(F)cc2c(=O)c(C(=O)O)cn(C3CC3)c12 (stereo unspecified)    0.973

[in] Looking for the measured normalized growth of COc1ccc(C(=O)CC(=O)O)c2c1C=CC(C)(C)O2 , can you help?
[out] 0.995

----------
# PROCEDURE SUMMARY: chemical genetic growth profiling, strain panel (AID 1159580);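 note: tested at 20 µM; growth read once vehicle control cultures reached saturation at 30 °C; 1 = growth at the plate median or of vehicle wells; lower values mean less growth of the strain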
# EXPERIMENTAL CONTEXT: S. cerevisiae deletion strains, growth OD, locus YNL067W, strain RPL9B, hits give low values
In all, about 5,500 compounds went through this assay and about 2,000 (36%) were called active. Inconclusive results (about 18%) are left out. The list shows a part of the results.
Output Met for records whose normalized growth is lower than 1, Not met for records at or above 1.

C[C@]12CCC(=O)C=C1C=CC1C2CC[C@@]2(C)C1CC[C@@]21CCC(=O)O1 (stereo partly drawn)    Met
CN(C)CCOC(c1ccc(Cl)cc1)c1ccccn1 (stereo not drawn)    Not met

Now examine the next entry.
[in] Is the reported normalized growth for CN1C2CCC1CC(OC(c1ccccc1)c1ccccc1)C2 (stereo not drawn) strictly below 1?
[out] Met

----------
# PROCEDURE SUMMARY: chemical genetic growth profiling, strain panel (AID 1159580);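 note: tested at 20 µM; growth read once vehicle control cultures reached saturation at 30 °C; 1 = growth at the plate median or of vehicle wells; lower values mean less growth of the strain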
# EXPERIMENTAL CONTEXT: S. cerevisiae deletion strains, growth OD, locus YOL147C, strain pex11, hits give low values
The whole screen tested about 5,500 compounds, of which about 2,000 (36%) were called active. Roughly 18% stayed inconclusive and do not appear here. This is one part of the list.
Entries and their normalized growth
Returns: the value as a bare number; no unit string appended.

CC1CCc2cc(F)cc3c(=O)c(C(=O)O)cn1c23 (stereo unspecified)    0.973
NCCCS(=O)(=O)O    0.989
COc1ccc2c(c1)OC1(O)COc3cc(OC)c(OC)cc3C1=C2 (stereo unspecified)    0.986
CC1COc2c(N3CCN(C)CC3)c(F)cc3c(=O)c(C(=O)O)cn1c23 (stereo unspecified)    1.01
N[C@@H](Cc1ccc(N(CCCl)CCCl)cc1)C(=O)O    0.986
O=c1cccc2ccc(O)c(O)c2c1O    0.65
O=C(O)CCCc1ccc(N(CCCl)CCCl)cc1    0.99
CCn1cc(C(=O)O)c(=O)c2cc(F)c(N3CCNCC3)nc21    1.02

[in] Looking for the measured normalized growth of C=C1C2CC[C@@]3(C)[C@H](c4ccoc4)OC(=O)C[C@]13O[C@H]1CC(=O)C(C)(C)[C@H](C(OC(C)=O)C(=O)OC)[C@@]21C (stereo partly specified) , can you help?
[out] 1

[in] Looking for the measured normalized growth of O=S(=O)(O)CCS , can you help?
[out] 0.989

[in] Looking for the measured normalized growth of C[C@H]1COc2c(N3CCN(C)CC3)c(F)cc3c(=O)c(C(=O)O)cn1c23 , can you help?
[out] 1.01
